Attribution: patent US7544694B2

Parameter IC50: see the listing below.
Target: NK3 (Homo sapiens)
Sequence (P29371 whole entry): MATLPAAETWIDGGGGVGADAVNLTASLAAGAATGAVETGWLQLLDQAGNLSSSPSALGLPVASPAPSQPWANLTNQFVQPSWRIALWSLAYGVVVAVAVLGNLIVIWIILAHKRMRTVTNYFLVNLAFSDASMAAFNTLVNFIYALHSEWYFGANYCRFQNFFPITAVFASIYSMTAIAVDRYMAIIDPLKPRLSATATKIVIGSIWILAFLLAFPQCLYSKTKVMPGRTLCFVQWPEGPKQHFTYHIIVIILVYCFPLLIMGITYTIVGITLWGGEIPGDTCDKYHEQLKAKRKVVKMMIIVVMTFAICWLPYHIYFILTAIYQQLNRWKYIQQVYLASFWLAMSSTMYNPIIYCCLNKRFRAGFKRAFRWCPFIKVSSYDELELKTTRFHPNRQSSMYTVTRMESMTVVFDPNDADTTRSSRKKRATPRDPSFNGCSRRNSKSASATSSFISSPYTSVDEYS
Experiment: Signal transduction (ST), intracellular Ca++ (FLIPR), NK3
Type: cell-based
Settings: antagonist, read-out: NK3 pIC50 (converted)
Field: numeric (µM). Do not append units.

Worked cases, answers included:
[[record]]
compound = "O=C(c1ccccc1Cl)N1CCC2(CC1)CCN([C@H]1CCN(C(=O)c3cc(C(F)(F)F)cc(C(F)(F)F)c3)[C@H](Cc3ccccc3)C1)CC2 [Compound 42]"
endpoint_value = 9.33

[[record]]
compound = "O=C(c1ccoc1)N1CCC2(CC1)CCN([C@H]1CCN(C(=O)c3cc(C(F)(F)F)cc(C(F)(F)F)c3)[C@H](Cc3ccc(F)c(F)c3)C1)CC2 [Compound 140]"
endpoint_value = 2.45


[ask] Enter reported IC50 observed with NK3 (Homo sapiens) for O=C(Cc1ccsc1)N1CCC2(CC1)CCN([C@H]1CCN(C(=O)c3cc(C(F)(F)F)cc(C(F)(F)F)c3)[C@H](Cc3ccccc3)C1)CC2 [Compound 76]
[reply] 3.98

[ask] Can you handle O=C(C1CC1)N1CCCC2(CCN([C@H]3CCN(C(=O)c4cc(C(F)(F)F)cc(C(F)(F)F)c4)[C@H](Cc4ccccc4)C3)CC2)C1 [Compound 172] next?
[reply] 5.75

[ask] Field entry: O=C(C1CC1)N1CCCC2(CCCN([C@H]3CCN(C(=O)c4cc(C(F)(F)F)cc(C(F)(F)F)c4)[C@H](Cc4ccccc4)C3)C2)C1 (some centres unmarked) [Compound 208]
[reply] 4.27

###

IC50 values for the compounds below.
Target: NK2 (Homo sapiens, UniProt P21452)
Sequence (P21452 whole entry): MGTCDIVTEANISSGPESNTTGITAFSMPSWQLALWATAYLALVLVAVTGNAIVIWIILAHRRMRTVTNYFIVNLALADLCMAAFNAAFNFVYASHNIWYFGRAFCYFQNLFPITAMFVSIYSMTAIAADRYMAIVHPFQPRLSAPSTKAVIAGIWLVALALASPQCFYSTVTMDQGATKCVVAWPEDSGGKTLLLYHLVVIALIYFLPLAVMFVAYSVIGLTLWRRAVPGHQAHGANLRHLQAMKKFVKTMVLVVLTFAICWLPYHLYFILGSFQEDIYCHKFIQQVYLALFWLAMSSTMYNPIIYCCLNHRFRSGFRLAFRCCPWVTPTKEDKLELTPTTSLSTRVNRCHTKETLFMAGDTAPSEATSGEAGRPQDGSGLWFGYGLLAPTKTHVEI
Experiment: Signal transduction (ST), intracellular Ca++ (FLIPR), NK2
Format: cell-based
Settings: antagonist, read-out: NK2 pIC50 (converted)

Below, each entry is followed by its recorded IC50 result.
[[record]]
compound = "O=C(Cc1ccsc1)N1CCC2(CC1)CCN([C@H]1CCN(C(=O)c3cc(C(F)(F)F)cc(C(F)(F)F)c3)[C@H](Cc3ccccc3)C1)CC2 [Compound 76]"
endpoint_value = "1150 nM"

[[record]]
compound = "O=C1CCC(C(=O)N2CCC3(CC2)CCN([C@H]2CCN(C(=O)c4cc(C(F)(F)F)cc(C(F)(F)F)c4)[C@H](Cc4ccc(F)c(F)c4)C2)CC3)N1 (stereo partly drawn) [Compound 139]"
endpoint_value = "2400 nM"


Lab note: next compound to report on.
[ask] For the compound Cc1ccc(OCC(=O)N2CCC3(CC2)CCN([C@H]2CCN(C(=O)c4cc(C(F)(F)F)cc(C(F)(F)F)c4)[C@H](Cc4ccccc4)C2)CC3)c(C)c1 [Compound 74] , what IC50 is on record?
[reply] > 10000 nM

###

Biological target: UniProt:P21452
Test: Signal transduction (ST), intracellular Ca++ (FLIPR), NK2
Format: cell-based
Details: antagonist, read-out: NK2 pIC50 (converted)
observable: IC50 (nM)
Return type: number; implicit unit nM.

Recorded IC50, per entry:
[[record]]
smiles_structure = "CC1(C(=O)N2CCC3(CC2)CCN([C@H]2CCN(C(=O)c4cc(C(F)(F)F)cc(C(F)(F)F)c4)[C@H](Cc4ccccc4)C2)CC3)CC1"
observable = "IC50"
endpoint_value = 5370

[[record]]
smiles_structure = "O=C(C1=CCCCC1)N1CCC2(CC1)CCN([C@H]1CCN(C(=O)c3cc(C(F)(F)F)cc(C(F)(F)F)c3)[C@H](Cc3ccccc3)C1)CC2"
observable = "IC50"
endpoint_value = 8510

[[record]]
smiles_structure = "O=C(c1cc(C(F)(F)F)cc(C(F)(F)F)c1)N1CC[C@H](N2CCC3(CC2)CCN(S(=O)(=O)c2ccc(Br)s2)CC3)C[C@H]1Cc1ccccc1"
observable = "IC50"
endpoint_value = 1910


[ask] Report IC50 for Cc1nnsc1C(=O)N1CCC2(CC1)CCN(C(=O)[C@H]1CCN(C(=O)c3cc(C(F)(F)F)cc(C(F)(F)F)c3)[C@H](Cc3ccccc3)C1)CC2 please.
[reply] 1620
